Target: human α7 nAChR stably expressed in a HEK cell line (with human RIC-3) (Homo sapiens, UniProt P36544)
Construct: PrecisION hnAChR α7/RIC-3
Sequence (P36544 23-502): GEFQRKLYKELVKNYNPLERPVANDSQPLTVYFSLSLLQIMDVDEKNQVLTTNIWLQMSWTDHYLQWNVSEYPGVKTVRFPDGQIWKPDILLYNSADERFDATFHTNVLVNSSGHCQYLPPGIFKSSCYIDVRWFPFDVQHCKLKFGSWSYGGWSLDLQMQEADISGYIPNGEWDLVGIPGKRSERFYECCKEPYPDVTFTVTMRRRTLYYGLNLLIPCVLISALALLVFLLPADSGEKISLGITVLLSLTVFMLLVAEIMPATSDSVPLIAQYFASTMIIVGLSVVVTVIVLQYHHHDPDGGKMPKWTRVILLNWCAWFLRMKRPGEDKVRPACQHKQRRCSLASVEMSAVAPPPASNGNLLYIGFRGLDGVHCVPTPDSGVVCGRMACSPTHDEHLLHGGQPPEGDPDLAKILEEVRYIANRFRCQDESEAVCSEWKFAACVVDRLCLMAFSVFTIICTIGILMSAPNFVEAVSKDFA
Assay: Automated patch-clamp electrophysiology functional assay (Assay A), IonFlux HT, whole-cell population patch
Assay type: cell-based
Conditions: electrophysiology EC50, HEK cells expressing human α7/RIC-3, 40 μM acetylcholine, holding potential −60 mV, room temperature; read-out: α7 nAChR EC50
MEASURED PARAMETER: pEC50
Worth noting: pEC50 values are minus log10 of concentrations stated in mol/L.

Recorded results for 10 molecules are shown here.
molecule="NS(=O)(=O)c1ccc([C@H]2[C@H](c3ncc(C4CCCC4)o3)C2(F)F)cc1 [Example K13]" reading=6.41
molecule="Cc1ccc(F)cc1-c1noc([C@H]2[C@H](c3ccc(S(N)(=O)=O)cc3)C2(C)C)n1 [Example 1]" reading=5.39
molecule="CC1(C)[C@@H](c2ccc(S(N)(=O)=O)cc2)[C@@H]1c1noc(-c2c(F)ccc(F)c2F)n1 [Example 3]" reading=7.08
molecule="NS(=O)(=O)c1ccc([C@@H]2C[C@H]2c2nc(Cc3ccc(F)cc3F)no2)cc1 [Example D26]" reading=6.09
molecule="Cn1cc([C@H]2[C@H](c3ccc(S(N)(=O)=O)cc3)C2(C)C)nc1-c1cccc(F)c1 [Example 35]" reading=5.36
molecule="CC1(C)[C@@H](c2ccc(S(N)(=O)=O)cc2)[C@@H]1c1nc(C2CCCC2)no1 [Example D20]" reading=7.16
molecule="NS(=O)(=O)c1ccc([C@@H]2C[C@H]2c2ncc(C3CC3)o2)cc1 [Example K5]" reading=6.46
molecule="Cc1sc([C@@H]2C[C@H]2c2ccc(S(N)(=O)=O)cc2)nc1-c1ccccc1 [Example 15]" reading=7.15
molecule="CC1(C)[C@H](c2ccc(S(N)(=O)=O)cc2)[C@H]1c1nc(-c2cccc(F)c2)no1 [Example A10]" reading=5.96
molecule="CC1(C)[C@@H](c2ccc(S(N)(=O)=O)cc2)[C@@H]1c1noc(-c2cccc(F)c2)n1 [Example H5]" reading=5.82

Give the measured pEC50 of CC1(C)[C@@H](c2ccc(S(N)(=O)=O)cc2)[C@@H]1c1nc(-c2cncc(C(F)(F)F)c2)no1 [Example D17] .
5.64

Give the measured pEC50 of NS(=O)(=O)c1ccc([C@@H]2C[C@H]2c2nc(C3CCCC3)no2)cc1 [Example D21] .
6.89

Give the measured pEC50 of CC1(C)[C@H](c2ccc(S(N)(=O)=O)cc2)[C@H]1c1cn(-c2cccc(F)c2)nn1 [Example L5] .
6.11

Give the measured pEC50 of CC1(C)[C@@H](c2ccc(S(N)(=O)=O)cc2)[C@@H]1c1noc(-c2cc(N3CCOC3=O)ccc2F)n1 [Example H7] .
5.62

Give the measured pEC50 of NS(=O)(=O)c1ccc([C@@H]2[C@@H](c3nsc(-c4ccccc4)n3)C2(F)F)cc1 [Example L13] .
6.13

Give the measured pEC50 of CC1(C)[C@H](c2ccc(S(N)(=O)=O)cc2)[C@H]1c1noc(N2CCCCC2)n1 [Example L20] .
5.89

----------
Biological target: human α7 nAChR stably expressed in a HEK cell line (with human RIC-3) (Homo sapiens)
Construct: PrecisION hnAChR α7/RIC-3
Test: Automated patch-clamp electrophysiology functional assay (Assay A), IonFlux HT, whole-cell population patch
Type: cell-based
Settings: automated patch-clamp electrophysiology functional assay (Assay A); potency class by EC50; read-out: α7 nAChR Potency
# EC50 annotations

Recorded results for 4 compounds are shown here.
cpd_smiles=CC1(C)[C@H](c2ccc(S(N)(=O)=O)cc2)[C@H]1c1nnc(-c2ccc(F)cc2F)s1 reading="100 to 500 nM"
cpd_smiles=NS(=O)(=O)c1ccc([C@@H]2C[C@H]2c2nc(-c3ccccc3C(F)(F)F)no2)cc1 reading="500 to 5000 nM"
cpd_smiles=Cc1cccc(-c2noc([C@@H]3C[C@H]3c3ccc(S(N)(=O)=O)cc3)n2)c1 reading="100 to 500 nM"
cpd_smiles=CC1(C)[C@@H](c2ccc(S(N)(=O)=O)cc2)[C@@H]1c1nnc(-c2ccc(F)cc2F)o1 reading="500 to 5000 nM"

Give the measured EC50 of NS(=O)(=O)c1ccc([C@@H]2C[C@H]2c2ncc(C3CC3)o2)cc1 .
100 to 500 nM

Give the measured EC50 of CC1(C)[C@@H](c2ccc(S(N)(=O)=O)cc2)[C@@H]1c1nc(CC2CC2)no1 .
100 to 500 nM
